A collection of molecules and their measured IC50
Target: CRBN/DDB1 (Homo sapiens (Human), UniProt Q96SW2)
Sequence (Q96SW2 whole entry): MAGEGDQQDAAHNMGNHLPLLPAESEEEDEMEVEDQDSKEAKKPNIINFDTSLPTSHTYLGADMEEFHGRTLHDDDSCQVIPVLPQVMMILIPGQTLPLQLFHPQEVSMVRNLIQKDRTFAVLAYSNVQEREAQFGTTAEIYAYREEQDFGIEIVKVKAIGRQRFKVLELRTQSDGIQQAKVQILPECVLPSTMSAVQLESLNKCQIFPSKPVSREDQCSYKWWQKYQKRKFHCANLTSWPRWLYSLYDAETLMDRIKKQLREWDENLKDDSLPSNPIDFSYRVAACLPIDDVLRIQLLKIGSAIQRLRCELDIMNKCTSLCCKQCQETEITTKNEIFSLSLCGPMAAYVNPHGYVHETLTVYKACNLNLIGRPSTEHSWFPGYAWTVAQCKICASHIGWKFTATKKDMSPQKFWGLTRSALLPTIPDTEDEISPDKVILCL
Sequence (Q16531 whole entry partner): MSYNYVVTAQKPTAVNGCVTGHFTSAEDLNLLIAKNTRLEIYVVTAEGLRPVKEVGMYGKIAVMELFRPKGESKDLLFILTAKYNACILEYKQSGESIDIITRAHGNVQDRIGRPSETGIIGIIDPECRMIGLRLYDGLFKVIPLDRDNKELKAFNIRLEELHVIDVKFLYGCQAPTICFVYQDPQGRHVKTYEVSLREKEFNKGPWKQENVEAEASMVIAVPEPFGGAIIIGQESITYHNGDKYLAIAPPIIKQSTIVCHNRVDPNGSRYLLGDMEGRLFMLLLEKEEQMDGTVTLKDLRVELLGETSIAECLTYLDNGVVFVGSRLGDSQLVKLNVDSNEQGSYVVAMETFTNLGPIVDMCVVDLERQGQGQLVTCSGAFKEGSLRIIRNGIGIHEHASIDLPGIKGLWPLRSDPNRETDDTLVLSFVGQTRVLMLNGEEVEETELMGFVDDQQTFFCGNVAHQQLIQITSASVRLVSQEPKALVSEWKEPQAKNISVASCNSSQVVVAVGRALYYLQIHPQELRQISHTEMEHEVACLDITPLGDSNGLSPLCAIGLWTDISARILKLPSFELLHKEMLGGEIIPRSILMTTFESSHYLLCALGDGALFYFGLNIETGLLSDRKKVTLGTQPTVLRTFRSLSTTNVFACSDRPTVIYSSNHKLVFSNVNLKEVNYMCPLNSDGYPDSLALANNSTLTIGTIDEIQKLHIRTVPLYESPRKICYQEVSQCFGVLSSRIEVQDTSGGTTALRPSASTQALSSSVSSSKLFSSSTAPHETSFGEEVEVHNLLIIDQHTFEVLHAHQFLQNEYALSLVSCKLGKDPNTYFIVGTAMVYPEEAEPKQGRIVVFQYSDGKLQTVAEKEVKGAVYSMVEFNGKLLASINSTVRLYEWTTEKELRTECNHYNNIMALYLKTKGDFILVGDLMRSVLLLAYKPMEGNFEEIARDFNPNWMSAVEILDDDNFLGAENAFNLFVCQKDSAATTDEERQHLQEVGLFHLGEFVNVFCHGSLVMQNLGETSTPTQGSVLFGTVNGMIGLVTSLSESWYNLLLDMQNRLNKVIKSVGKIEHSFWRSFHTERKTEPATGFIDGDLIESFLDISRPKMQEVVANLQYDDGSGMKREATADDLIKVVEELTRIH
Type: binding
Settings: His tagged CRBN+DDB-DLS7+CXU4, Cy5-labeled Thalidomide probe, one hour incubation; read-out: CRBN HTRF IC50
Counter-ions that a name gives are not always drawn.

>>> test_result("C[C@@H]1Cc2c([nH]c3ccccc23)[C@@H](c2cnc(N3CCN(CC4CCN(c5ccc(N6CCC(=O)NC6=O)cc5)CC4)CC3)nc2)N1CC(F)F")
"500 to 5000 nM"
>>> test_result("C[C@H]1Cc2c([nH]c3ccccc23)[C@H](c2ccc(N3CCC(CN4CCN5c6ccc7c(c6OC[C@@H]5C4)CN([C@@H]4CCC(=O)NC4=O)C7=O)CC3)cn2)N1CC(F)(F)F")
"500 to 5000 nM"

Recorded IC50 of COc1cc(N2CCC(CN3CCN(c4ccc(C(=O)N[C@H]5CCC(=O)NC5=O)nc4)CC3)CC2)ccc1[C@@H]1c2[nH]c3ccccc3c2C[C@@H](C)N1CC(F)F [Compound A43, formate] , please.
500 to 5000 nM

Name the recorded IC50 for COc1cc(N2CCC(CN3CCN(c4ccc(NC5CCC(=O)NC5=O)c(F)c4)CC3)CC2)ccc1[C@@H]1c2[nH]c3ccccc3c2C[C@@H](C)N1CC(F)F (stereo partly shown) .
500 to 5000 nM

Give its IC50 value. Item: COc1cc(N2CCC(CN3CCN(c4ccc(C(=O)N[C@H]5CCC(=O)NC5=O)nc4)CC3)CC2)ccc1[C@@H]1c2[nH]c3ccccc3c2C[C@@H](C)N1CC(F)F [Compound A55]
> 5000 nM
